Parameter: IC50. Scope: all listed entries.
- Tested on: Hek293 WFS1 over-expressor
- Protocol Summary: In vitro cell viability (CellTiter-Glo), Hek293 WFS1 over-expressor
- Type: cell-based
- Test Conditions: Homo sapiens, HEK293, Hek293 WFS1 over-expressing cells; read-out: Hek293 WFS1 viability

The following molecules have reported results that may help.
| Molecule | IC50 |
| --- | --- |
| Cc1nc(NCc2cnn(Cc3cc(C(F)(F)F)nn3C)c2)nc2c1NC(=O)[C@H](C1CC1)N2C | < 60 nM |
| CN1C(=O)C(C)(C)N(C)c2nc(NCc3cnn(Cc4cccnc4C(F)(F)F)c3)ncc21 | 60 to 600 nM |

Could you now look at the following molecule, please?
GET /values?item= "Cc1nc(NCc2cnn(Cc3ccc(F)cc3)c2)nc2c1N(C)C(=O)[C@H](C)N2C" &system= Hek293 WFS1 over-expressor returns IC50: < 60 nM

---

Form: system (HEK293 membranes over-expressing WFS-1 (Homo sapiens (Human), UniProt O76024)), quantity (IC50), values below.

The following compounds have reported results that may help.
| Compound | Property Name | Measured |
| --- | --- | --- |
| Cc1nc(N[C@H]2C[C@@H](COc3cc(F)c(F)c(F)c3)C2)nc2c1NC(=O)[C@H](C)N2C [Compound 257] | IC50 | 60 to 600 nM |
| Cc1nc(NCc2cnn(Cc3ccc(F)nc3)c2)nc2c1NC(=O)[C@H](C(C)C)N2C [Compound 384] | IC50 | 60 to 600 nM |
| Cc1nc(N[C@H]2C[C@H](Oc3cc(F)c(F)c(F)c3)C2)nc2c1NC(=O)[C@H](CO)N2C [Compound 677] | IC50 | 60 to 600 nM |
| Cc1nc(N[C@H]2C[C@H](OCc3cc(F)c(F)c(F)c3)C2)nc2c1NC(=O)[C@H](C)N2C [Compound 254] | IC50 | 60 to 600 nM |
| Cc1nc(N[C@H]2C[C@H](Oc3cc(F)c(F)c(F)c3)C2)nc2c1N(C)C(=O)[C@H](C)N2C [Compound 253] | IC50 | < 60 nM |
| Cc1nc(N[C@H]2C[C@H](Oc3ccc(C(F)(F)F)nc3)C2)nc2c1NC(=O)[C@H](C)N2C [Compound 324] | IC50 | < 60 nM |
| Cc1nc(NCc2cnn(Cc3cc(F)c(F)c(F)c3)c2)nc2c1NC(=O)[C@H](C)N2C [Compound 122] | IC50 | < 60 nM |
| CCN1c2nc(NCc3cnn(Cc4ccc(C(F)(F)F)nc4)c3)nc(C)c2NC(=O)[C@@H]1C [Compound 395] | IC50 | 60 to 600 nM |
| Cc1cnc(C(F)(F)F)nc1-n1cc(CNc2ncc3c(n2)N(C)[C@@H](C)C(=O)N3)cn1 [Compound 164] | IC50 | 60 to 600 nM |
| Cc1nc(NCc2cnn(Cc3cccc(C(C)C)c3)c2)nc2c1NC(=O)[C@H](C)N2C [Compound 80] | IC50 | < 60 nM |

GET /values?item= Cc1nc(N[C@H]2C[C@H](Oc3ccc(C(F)(F)F)nc3)C2)nc2c1NC(=O)[C@H](C(C)C)N2C [Compound 685] &system= HEK293 membranes over-expressing WFS-1 (Homo sapiens (Human), UniProt O76024) returns IC50: < 60 nM

GET /values?item= CC[C@H]1C(=O)Nc2cnc(NCc3cnn(Cc4ccc(F)cc4)c3)nc2N1C [Compound 9] &system= HEK293 membranes over-expressing WFS-1 (Homo sapiens (Human), UniProt O76024) returns IC50: 60 to 600 nM

GET /values?item= Cc1nc(NCc2cnn(Cc3ccc(C(F)(F)F)nc3)c2)nc2c1NC(=O)[C@H](C)N2C [Compound 136] &system= HEK293 membranes over-expressing WFS-1 (Homo sapiens (Human), UniProt O76024) returns IC50: 60 to 600 nM

GET /values?item= Cc1nc(NCc2cnn(Cc3ccc(C(F)(F)F)cc3)c2)nc2c1NC(=O)[C@H](C)N2C [Compound 149] &system= HEK293 membranes over-expressing WFS-1 (Homo sapiens (Human), UniProt O76024) returns IC50: 60 to 600 nM

GET /values?item= Cc1cc(F)ncc1Cn1cc(CNc2nc(C)c3c(n2)N(C)[C@@H](C)C(=O)N3)cn1 [Compound 94] &system= HEK293 membranes over-expressing WFS-1 (Homo sapiens (Human), UniProt O76024) returns IC50: 60 to 600 nM

GET /values?item= Cc1nc(C(F)(F)F)ccc1Cn1cc(CNc2nc(C)c3c(n2)N(C)[C@@H](C)C(=O)N3)cn1 [Compound 188] &system= HEK293 membranes over-expressing WFS-1 (Homo sapiens (Human), UniProt O76024) returns IC50: 60 to 600 nM

---

Parameter: Percent Remaining Activity at 8 hrs after Dosing. Scope: all listed entries.
- Test system: Colo205-TCF/LEF-Luciferase (Luc) tumor
- Protocol Summary: In vivo inhibition of TCF/LEF reporter activity in Colo-205 tumors
- Design: concentration or dose not given beside the values
- Test Conditions: TCF/LEF luciferase reporter in Colo-205 tumors, nu/nu mice, oral gavage
Write the answer as a number in %, unit excluded.

The following molecules have reported results that may help.
| Molecule | Target Entity | Measured |
| --- | --- | --- |
| Cc1nc(NCc2cnn(Cc3ccc(F)nc3)c2)nc2c1NC(=O)[C@H](C1CC1)N2C [Compound 421] | Colo205-TCF/LEF-Luciferase (Luc) tumor | 23 |
| COCC[C@H]1C(=O)Nc2c(C)nc(NCc3cnn(Cc4ccc(C(F)(F)F)nc4)c3)nc2N1C [Compound 589] | Colo205-TCF/LEF-Luciferase (Luc) tumor | 94 |
| Cc1nc(NC2CN(C(=O)c3ccc(C(F)(F)F)nc3)C2)nc2c1NC(=O)[C@H](C(C)C)N2C [Compound 545] | Colo205-TCF/LEF-Luciferase (Luc) tumor | 51 |

Reported Percent Remaining Activity at 8 hrs after Dosing of Cc1nc(NCc2cnn(Cc3ccc(C(F)F)nc3)c2)nc2c1NC(=O)[C@H](C(C)C)N2C [Compound 500] : 43

Reported Percent Remaining Activity at 8 hrs after Dosing of CO[C@H](C)[C@H]1C(=O)Nc2c(C)nc(NCc3cnn(Cc4ccc(OC(F)(F)F)nc4)c3)nc2N1C [Compound 565] : 68

Reported Percent Remaining Activity at 8 hrs after Dosing of Cc1nc(N[C@@H]2CC[C@@H](Oc3cc(F)c(F)c(F)c3)C2)nc2c1N(C)C(=O)[C@H](C)N2C [Compound 272] : 14

---

Parameter: Percent Remaining Activity at 8 hrs after Dosing. Scope: all listed entries.
- Test system: Colo205-TCF/LEF-Luciferase (Luc) tumor
- Protocol Summary: In vivo inhibition of TCF/LEF reporter activity in Colo-205 tumors
- Design: concentration or dose not given beside the values
- Test Conditions: TCF/LEF luciferase reporter in Colo-205 tumors, nu/nu mice, oral gavage
Write the answer as a number in %, unit excluded.

| Molecule | Quantity Unit | Measured |
| --- | --- | --- |
| Cc1nc(NCc2cnn(Cc3ccnc(C(F)(F)F)c3)c2)nc2c1NC(=O)[C@H](C1CC1)N2C | % | 63 |
| Cc1nc(NCc2cnn(Cc3cc(F)c(F)c(F)c3)c2)nc2c1N(C)C(=O)[C@H](C)N2C | % | 33 |
| Cc1nc(NCc2cnn(Cc3ccc(C(F)(F)F)nc3C(C)C)c2)nc2c1NC(=O)[C@H](C)N2C | % | 13 |
| CO[C@H](C)[C@H]1C(=O)Nc2c(C)nc(NCc3cnn(Cc4cc(C(F)(F)F)nn4C)c3)nc2N1C | % | 51 |

Reported Percent Remaining Activity at 8 hrs after Dosing of "Cc1nc(NCc2cnn(Cc3ccc(F)cc3)c2)nc2c1NC(=O)[C@H](C)N2C" : 23

Reported Percent Remaining Activity at 8 hrs after Dosing of "Cc1nc(NCc2cnn(Cc3cc(F)c(F)c(F)c3)c2)nc2c1NC(=O)[C@H](C(C)C)N2C" : 22

Reported Percent Remaining Activity at 8 hrs after Dosing of "Cc1nc(N[C@H]2C[C@@H](Nc3cnc(C#N)cn3)C2)nc2c1NC(=O)[C@H](C(C)C)N2C" : 57

Reported Percent Remaining Activity at 8 hrs after Dosing of "Cc1nc(NCc2cnn(Cc3ccc(C(F)(F)F)nc3)c2)nc2c1NC(=O)C1(CCC1)N2C" : 83

Reported Percent Remaining Activity at 8 hrs after Dosing of "COc1c(F)cc(Cn2cc(CNc3nc(C)c4c(n3)N(C)[C@@H](C)C(=O)N4)cn2)cc1F" : 20

Reported Percent Remaining Activity at 8 hrs after Dosing of "Cc1nc(NC2CN(C(=O)c3ccc(Cl)nc3)C2)nc2c1NC(=O)[C@H](C(C)C)N2C" : 30

Reported Percent Remaining Activity at 8 hrs after Dosing of "Cc1nc(N[C@H]2C[C@@H](Nc3ccc(C(F)(F)F)nn3)C2)nc2c1NC(=O)[C@H](C(C)C)N2C" : 62

Reported Percent Remaining Activity at 8 hrs after Dosing of "Cc1nc(NCc2cnn(Cc3cc(F)c(F)c(F)c3)c2)nc2c1NC(=O)[C@H](C)N2C" : 16

Reported Percent Remaining Activity at 8 hrs after Dosing of "Cc1nc(N[C@H]2C[C@@H](COc3cc(F)c(F)c(F)c3)C2)nc2c1NC(=O)[C@H](C)N2C" : 30

Reported Percent Remaining Activity at 8 hrs after Dosing of "Cc1nc(NCc2cnn(Cc3ccc(F)cc3)c2)nc2c1N(C)C(=O)[C@H](C)N2C" : 32

Reported Percent Remaining Activity at 8 hrs after Dosing of "Cc1nc(NCc2cnn(Cc3ccc(F)cc3)c2)nc2c1N(C)C(=O)C1(CC1)N2C" : 39

Reported Percent Remaining Activity at 8 hrs after Dosing of "Cc1nc(NCc2cnn(Cc3cc(C(F)(F)F)nn3C)c2)nc2c1NC(=O)[C@H](C1CC1)N2C" : 23

Reported Percent Remaining Activity at 8 hrs after Dosing of "Cc1nc(NCc2cnn(Cc3cnc(C(C)C)o3)c2)nc2c1NC(=O)[C@H](C(C)C)N2C" : 93

Reported Percent Remaining Activity at 8 hrs after Dosing of "Cc1nc(NCc2cnn(Cc3cnc(Cl)s3)c2)nc2c1NC(=O)[C@H](C(C)C)N2C" : 41

Reported Percent Remaining Activity at 8 hrs after Dosing of "Cc1nc(NCc2cnn(Cc3ccc(F)cc3C#N)c2)nc2c1N(C)C(=O)[C@H](C)N2C" : 9

Reported Percent Remaining Activity at 8 hrs after Dosing of "Cc1nc(NCc2cnn(Cc3ccnc(C(F)(F)F)c3)c2)nc2c1NC(=O)[C@H](C)N2C" : 18

Reported Percent Remaining Activity at 8 hrs after Dosing of "Cc1nc(N[C@H]2C[C@@H](Sc3cc(F)c(F)c(F)c3)C2)nc2c1NC(=O)[C@H](C)N2C" : 51
